Here the recorded growth is given for each entry.
tested on: 786-0 renal; test: NCI-60 one-dose screen, 48 h (100 = growth as untreated, 0 = no growth, -100 = all killed); conditions: 10 µM unless noted
This is part of a sample that, as a whole, favours compounds with a hit. Of some 83,000 tested, about 20% had one in any assay. Activity calls are given as the source filed them. Rule for the calls: active = growth percent below 10; inactive = the rest.

Completed entries (count: 10):
COc1cc(CNC(=O)CCCC/C=C/C(C)C)ccc1OCc1nnc(Nc2ccc([N+](=O)[O-])cc2)o1 = 22.2% (inactive)
N#C/C(=C/c1ccc([N+](=O)[O-])cc1)n1nnc2cc(F)c(F)cc21 = 42.1% (inactive)
CC1=NN(c2nc(SCC(=O)Nc3nc4ccc(C)cc4s3)nc(-c3ccccc3)c2C#N)C(=O)C1 = 100% (inactive)
CC(C)N1CCN(Cc2ccc3c(NNC(=O)c4ccccc4)nc4cc(F)ccc4n23)CC1 = 34.2% (inactive)
CCN1CC(=O)N(/N=C2\C(=O)Nc3ccccc32)C1=S = 103% (inactive)
CN([O-])c1nc(N(C)[O-])nc(N2CCOCC2)n1.CN([O-])c1nc(N(C)[OH2+])nc(N2CCOCC2)n1.[Fe+3] = 114% [100 µM] (inactive)
COc1cc2c(c(OC)c1OC)-c1ccc(OC)c(=O)cc1[C@@H](NC(=O)CCl)CC2 = 14.6% (inactive)
O=c1c2cc(-c3ccccc3)sc2nc2sc(-c3ccccc3)nn12 = 93% (inactive)
C/C(=N/O)c1ccc(F)cc1 = 107% (inactive)
C=C(C)[C@@H]1CC[C@]2(C(=O)NCC#CCN3CCN(C)CC3)CC[C@]3(C)[C@H](CC[C@@H]4[C@@](C)(CCC#N)[C@H](C(=C)C)CC[C@]43C)[C@@H]12 = 54.5% (inactive)

# input Entry O=C1C(Cl)=C(Oc2ccccc2)C(=O)c2ccccc21 : reported growth = ?
# output 94.1% (inactive)

# input // growth lookup, key: O=[N+]([O-])/C(=C/C=C/c1ccccc1)c1ccccc1
# output -7.75% (active)

# input Using the record for Cc1nc(N2CCOCC2)sc1S(N)(=O)=O , report its growth.
# output 101% (inactive)

# input Item O=C(O)c1ccc(-n2cc(/C=N/Nc3ccc(F)cc3)c(-c3cc4ccccc4oc3=O)n2)cc1 has what recorded growth?
# output 74.6% (inactive)

# input Need growth, item CC[C@@H](C(=O)[C@@H](C)[C@@H](O)[C@H](C)[C@@H]1O[C@@H]([C@@H](CC)C(=O)NCCc2ccc(F)cc2)CC[C@@H]1C)C1O[C@]2(C=CC(=O)[C@]3(CC[C@@](C)([C@H]4CC[C@](O)(CC)[C@H](C)O4)O3)O2)[C@H](C)C[C@@H]1C (some centres not stated)
# output 50.3% (inactive)

###

tested on: LOX IMVI melanoma; assay: NCI-60 one-dose screen, 48 h; conditions: 10 µM unless noted
The panel holds about 83,000 compounds, 20% with a hit somewhere; the sample as a whole holds those more often. Calls of active or inactive are those of the source. Rule for the calls: active = growth percent below 10; inactive = the rest.
Select the correct class. Options are true (1) for active, false (0) for inactive and nothing else.

Solved cases below.
N#CC1=C(N)Oc2c(sc3c(Br)cccc23)C1c1ccc(F)cc1 (stereo unspecified) = false (0)
CCOC(=O)C(=Cc1cccc(Br)c1)C(=O)OCC = true (1)
Cc1cccnc1NC(=S)Nc1ncccc1C = false (0)
CCNC(=O)c1[nH]cc(-c2ccccc2)c1-c1cc(OC)c2c(c1OC)OCO2 = false (0)
O=c1oc2ccccc2cc1C1=NN=C(SCc2ccccc2)SC1 = false (0)

# input Identify the outcome logged in this assay for the molecule shown: CCS/C(Nc1ccccc1)=C(\C#N)C(=O)N/N=C/c1ccc(Cl)cc1Cl
# output false (0)

# input # lookup: test call for CCCCCCNC(=O)Oc1ccc(/C(=C(/C)Cc2ccc(OC)cc2)c2ccc(OCCCN(C)C)cc2)cc1
# output true (1)

# input Please share the test call associated with COc1cc2c(c(OC)c1OC)C(=O)CC(c1cccc(NC(=O)c3ccc(Br)cc3)c1)O2 (stereo unspecified) .
# output false (0)

# input Check the results log: what was the call for N#Cc1cccc(NC(=O)c2oc3ccccc3c2-c2cnn(-c3ccccc3)c2)c1 ?
# output false (0)

# input Give the logged outcome of this assay for the following molecule: COc1ccc(-c2nc(/C=C3\SC(=NCc4ccccc4)NC3=O)c3ccccn23)cc1
# output true (1)

# input Look up the recorded call for N#Cc1cccc(F)c1 in this test.
# output false (0)

Data credit: PubChem BioAssay (NCI)
